meta.source: ChEMBL document CHEMBL4373746

- EXPERIMENTAL_PROTOCOL: Unbound tissue partition coefficient, ratio of drug level in brain to plasma in Wistar Han rat at 1 to 2 mg/kg, iv infused for 10 to 20 hrs by LC-MS/MS analysis
- TEST_CONTEXT: brain
Quick reference for Kp uu among some compounds
The response must contain the number and no unit.

SMILES_DATA | QUANTITATIVE_RESULT
CC(C)c1nc(CN(C)C(=O)N[C@H](C(=O)N[C@@H](Cc2ccccc2)C[C@H](O)[C@H](Cc2ccccc2)NC(=O)OCc2cncs2)C(C)C)cs1 | 0.0018

I am curious: what Kp uu value has been reported for "COc1cc2nc(N3CCN(C(=O)c4ccco4)CC3)nc(N)c2cc1OC" ?
0.11

###

The following compounds are listed with their measured Cp values.
- EXPERIMENTAL_PROTOCOL: Total plasma concentration in Wistar Han rat at 1 to 2 mg/kg, iv infused for 10 to 20 hrs by LC-MS/MS analysis
- TEST_CONTEXT: in vivo
Respond numerically; units are ng/mL and should not be typed.

COMPOUND | Cp, ng/mL
CS(=O)(=O)c1cccc(C(=O)O)c1 | 130
O=c1[nH]c(=S)n(CCO)c2cc[nH]c12 | 32
C[C@H](c1nc2cnc(N3CCC[C@@H](C(=O)N4CCCC4)C3)nc2[nH]1)n1cc(Cl)cn1 | 50
COc1cc(/C=C2\CCCN([C@@H](C)c3ccc(F)cc3)C2=O)ccc1-n1cnc(C)c1 | 210

Fill in the blank: the reported Cp of "CC(C)n1ncc2c1C(=O)CC1(CCN(C(=O)c3ccc4[nH]nc(C(N)=O)c4c3)CC1)C2" is ____.
65

Return reported Cp; argument: "N#Cc1ccc(N2N=C(N3CCC(C(=O)N4CCC(O)CC4)CC3)C[C@H]2C2CCCC2)cc1Cl"
240

Name the recorded Cp for CCCC(Oc1ccc(-n2cc3ccccc3n2)cc1)c1ccc(C(=O)NCCC(=O)O)cc1 (stereo not given) .
68

Quick one: Cp for "O=C(NC(c1ccccc1)c1ccccc1)C1CC1" ?
79

Any idea what Cp was measured for "Cc1ccc(NC(=O)N2CCN(Cc3sc4ccccc4c3C)CC2)nc1" ?
92

###

- EXPERIMENTAL_PROTOCOL: Drug concentration in total white adipose tissue in Wistar Han rat at 1 to 2 mg/kg, iv infused for 10 to 20 hrs by LC-MS/MS analysis
- TEST_CONTEXT: in vivo
Classes based on Ct: low (below 10 ng/mL), middle (10 ng/mL to below 30 ng/mL), high (30 ng/mL or more)

Take a look at these entries with their results.
COMPOUND | CLASS_NAME
Cc1ccc(NC(=O)c2cc(Oc3ccc(S(C)(=O)=O)cc3)c3c(c2)OC(C)(C)C3)nc1 | high
COCCCN1C[C@H](C)N(C(=O)N2Cc3c(NC(=O)c4ccccn4)n[nH]c3C2(C)C)C[C@H]1C | middle
Cc1ccc(CC(C)(C)NC[C@@H](O)CO[C@H](C)c2ccccc2-c2ccc(C(=O)O)c(C)c2)cc1F | low

Please look at the following compound next.
Hey, which category is CCCC(Oc1ccc(-n2cc3ccccc3n2)cc1)c1ccc(C(=O)NCCC(=O)O)cc1 (stereo unspecified) in, do you know?
low

###

- EXPERIMENTAL_PROTOCOL: Fraction unbound in Wistar Han rat heart at 2 uM incubated for 6 hrs by equilibrium dialysis method
PROPERTY_NAME: fraction unbound at 6 h, 2 µM
Just the number, please.

Known results for compounds:
SMILES_DATA | QUANTITATIVE_RESULT
CC(=O)NS(=O)(=O)c1ccc(Oc2ccc(F)c(Cl)c2)c(C(F)(F)F)c1 | 0.0329
C[C@H]1c2cccc(CCC(C)(C)O)c2C[C@H](CO)N1C(=O)Cc1c(Cl)cccc1Cl | 0.016

Please report the recorded fraction unbound at 6 h, 2 µM for "C[C@H](CN1CCOCC1)n1/c(=N\C(N)=O)[nH]c2cc(/C=C3\c4ccccc4COc4cc(F)ccc43)ccc21" .
0.000104

# fraction unbound at 6 h, 2 µM lookup, item "C[C@H](c1nc2cnc(N3CCC[C@@H](C(=O)N4CCCC4)C3)nc2[nH]1)n1cc(Cl)cn1"
0.121
